test system: UACC-62 melanoma; assay: NCI tumour cell line growth inhibition, 48 h

| compound | GI50 |
| --- | --- |
| COc1ccc(C2SCC(=O)N2NC(=O)C(O)c2ccccc2)cc1 (stereo not given) | > 100 µM |
| CCOC(=O)Nc1ccc(C(=O)/C=C/c2ccccc2)cc1 | 20.1 µM |
| OCC#CCCCCOCC#Cc1ccccc1C#CCOCCCCC#CCO | 18.4 µM |
| Cc1cc(S(=O)(=O)Nc2nc3ccccc3[nH]2)c(SCc2ccccc2)cc1Cl | > 100 µM |
| N=C1N=C(N)S/C1=C\c1ccc2ncccc2c1 | > 25 µM |
| COc1ccccc1Nc1nc2ccccc2c2occc12 | 10.1 µM |
| Cc1ccc(N(/C=C/C(=O)C(F)(F)F)CC(=O)c2ccc(Cl)c(Cl)c2)cc1 | 5.57 µM |
| O=C(c1ccccc1)c1ccc(O)c2ncccc12 | 2.34 µM |
| O=C(Nc1nc(-c2ccccc2)cs1)c1cc(O)c(O)c(O)c1 | 3.02 µM |
| C=C(CN(C)Cc1ccccc1)c1ccc(C(=O)Nc2ccccc2N)cc1 | 2.16 µM |
| CCOc1ccc(NC(=O)c2cc3ccccc3cc2O)cc1 | 57.4 µM |
| COc1cc2c(c(OC)c1OC)C(=O)c1c-2n(CCCN=[N+]=[N-])c(=O)c2cc([N+](=O)[O-])ccc12 | 39.7 µM |
| CC(=O)N1N=C(c2ccc(Nc3nc(Nc4ccc(F)cc4)nc(Nc4ccc(Cl)cc4)n3)cc2)CC1c1ccc(N(C)C)cc1 (stereo not given) | 2.26 µM |
| N#CSCC1CC(O)(c2ccccc2)CC(c2ccc(Cl)cc2)O1 (stereo not given) | 3.31 µM |
| O=C1Nc2ccc(CN3CCOC3=O)cc2/C1=C/c1cc(CN2CCOCC2)c[nH]1 | 34.4 µM |

---

test system: RPMI-8226 leukemia; assay: NCI tumour cell line growth inhibition, 48 h

| compound | TGI |
| --- | --- |
| O=C1O/C(=C(/Cl)c2c3ccccc3cc3ccccc23)c2ccccc21 | 66.4 µM |
| OCc1ncc(-c2ccccc2)s1 | > 100 µM |
| Cc1ccccc1C1CC(=O)CC(c2ccccc2C)C12C(=O)NC(=S)NC2=O (stereo not drawn) | 38.6 µM |
| CC(=O)Oc1ccccc1C(=O)NCCC[Se]C#N | 6.04 µM |
| Cc1ccc(S(=O)(=O)OI(O)CC(F)(F)F)cc1 | > 100 µM |
| NCCn1cnc2nc(NC(=O)c3ccccc3)[nH]c(=O)c21 | > 100 µM |
| O=C(CSc1nc2ccc(I)cc2c(=O)n1Cc1ccccc1)NN1C(=O)CSC1c1ccccc1 (stereo not drawn) | > 100 µM |
| COC(=O)C1Cc2c([nH]c3ccccc23)-c2[nH]c3ccccc3c2CC(NC(C)=O)C(=O)NCC(=O)NCC(=O)N1 (stereo not drawn) | > 100 µM |
| Cn1ccc2c3c(=O)cc[nH]c3ccc21 | > 100 µM |
| C/C=C/C=C/CCCCCCCCCCCCC[C@]1(OC)C=CC(CC(=O)OC)OO1 (stereo partly drawn) | 49.2 µM |
| COc1ccccc1Nc1nc2ccccc2c2occc12 | > 50 µM |
| COc1cc(OC)c2nc(C)c3c(c2c1)OCC3 | > 100 µM |
| Cc1ccc(N(/C=C/C(=O)C(F)(F)F)CC(=O)c2ccc(Cl)c(Cl)c2)cc1 | 27 µM |
| Cc1nnc2n1N=C(c1ccc(-c3ccc([N+](=O)[O-])cc3)o1)CS2 | > 100 µM |
| CC(C)(C)OC(=O)NC(Cc1ccc(OCc2ccccc2)cn1)C(N)=O (stereo not drawn) | > 100 µM |
| O=C(O)c1nnsc1-c1csnn1 | > 100 µM |
| Cc1nc2ccccc2c(/C=C/c2ccccc2)c1C(=O)/C=C/c1ccc(Cl)cc1 | 3.58 µM |
| NC(=S)N/N=C/c1ccc(OC(=O)COc2ccccc2)cn1 | > 100 µM |
| Cc1cccc(/C=C2/C(=O)Nc3ccccc32)n1 | 46.5 µM |
| O=C(Nc1ccccc1[N+](=O)[O-])C(=O)C(C(=O)c1ccccc1-c1ccccc1)C1OC(=O)c2ccccc21 (stereo not drawn) | 78.3 µM |
| CC1(C)CC2C(/C1=N/O)C1(C)CCCC2(C)C1O (stereo not drawn) | > 100 µM |
| C=C(C)CCN(C(=O)OC(C)(C)C)c1cc(C(C)C)co1 | 57.3 µM |
| CCOC(=O)C1=C(c2ccccc2)NC(c2ccccc2)=C(C(=O)OCC)c2c1c(=O)cc[nH]c2=O | > 100 µM |
